Target: Env of HIV-1 strain X1254_c3 (HIV-1)
Measurement description: cell-based or functional assay
Assay endpoint: neutralization IC50 (µg/mL)

{"Binder": "γ46κ61 (antibody, V domains shown) VH: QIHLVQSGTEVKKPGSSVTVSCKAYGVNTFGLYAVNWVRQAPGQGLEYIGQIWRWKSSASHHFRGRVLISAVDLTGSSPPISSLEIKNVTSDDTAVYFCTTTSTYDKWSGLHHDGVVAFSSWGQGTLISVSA VL: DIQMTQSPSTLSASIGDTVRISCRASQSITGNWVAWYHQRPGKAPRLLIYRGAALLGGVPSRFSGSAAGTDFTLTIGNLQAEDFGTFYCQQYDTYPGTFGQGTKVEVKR", "Units": "µg/mL", "Value reported": 4.46}
{"Binder": "γ8κ3 (antibody, V domains shown) VH: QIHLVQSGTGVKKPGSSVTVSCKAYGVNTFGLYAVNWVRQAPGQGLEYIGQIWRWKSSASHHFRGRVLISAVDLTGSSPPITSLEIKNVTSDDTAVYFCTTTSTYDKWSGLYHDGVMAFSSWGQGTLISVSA VL: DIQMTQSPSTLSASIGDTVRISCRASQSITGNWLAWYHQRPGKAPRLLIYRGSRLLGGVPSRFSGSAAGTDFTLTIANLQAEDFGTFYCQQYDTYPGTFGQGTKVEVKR", "Units": "µg/mL", "Value reported": 4.01}
{"Binder": "γ20κ3 (antibody, V domains shown) VH: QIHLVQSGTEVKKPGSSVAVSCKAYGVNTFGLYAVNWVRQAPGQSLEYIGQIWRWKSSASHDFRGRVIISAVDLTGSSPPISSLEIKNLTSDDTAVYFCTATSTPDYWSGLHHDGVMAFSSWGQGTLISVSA VL: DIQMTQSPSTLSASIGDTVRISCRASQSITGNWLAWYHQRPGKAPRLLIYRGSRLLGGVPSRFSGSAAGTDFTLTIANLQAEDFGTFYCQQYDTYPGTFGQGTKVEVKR", "Units": "µg/mL", "Value reported": 14.7}
